# System: HCT-116/VM46
# test description: Growth inhibition of human HCT116/VM46 cells over-expressing P-gp after 72 hrs by phosphatase assay
# Assay type: functional, cell-based
# condition parameters: HCT-116/VM46, 72 h
Reported IC50 values for a set of compounds
quantity measured: IC50 (nM)

{"columns": ["structure", "limit sign", "reported"],
 "data": [
  ["CC(=O)O[C@H]1C(=O)[C@@]2(C)[C@H]([C@H](OC(=O)c3ccccc3)[C@]3(O)C[C@H](OC(=O)[C@H](O)[C@@H](NC(=O)c4ccccc4)c4ccccc4)C(C)=C1C3(C)C)[C@]1(OC(C)=O)CO[C@@H]1C[C@@H]2O", ">", 200],
  ["CC[C@]1(NC(=O)N2Cc3ccc(NC(=O)c4cnccn4)cc3C2)C[C@H]2CN(CCc3c([nH]c4ccc(F)cc34)[C@@](C(=O)OC)(c3cc4c(cc3OC)N(C)[C@H]3[C@@](O)(C(=O)OC)[C@H](OC(C)=O)[C@]5(CC)C=CCN6CC[C@]43[C@@H]65)C2)C1", "=", 0.83]
]}

Values from ChEMBL document CHEMBL4184283
